# experimental_system: hS1P1 receptor (Homo sapiens)
# Sequence (P21453 whole entry): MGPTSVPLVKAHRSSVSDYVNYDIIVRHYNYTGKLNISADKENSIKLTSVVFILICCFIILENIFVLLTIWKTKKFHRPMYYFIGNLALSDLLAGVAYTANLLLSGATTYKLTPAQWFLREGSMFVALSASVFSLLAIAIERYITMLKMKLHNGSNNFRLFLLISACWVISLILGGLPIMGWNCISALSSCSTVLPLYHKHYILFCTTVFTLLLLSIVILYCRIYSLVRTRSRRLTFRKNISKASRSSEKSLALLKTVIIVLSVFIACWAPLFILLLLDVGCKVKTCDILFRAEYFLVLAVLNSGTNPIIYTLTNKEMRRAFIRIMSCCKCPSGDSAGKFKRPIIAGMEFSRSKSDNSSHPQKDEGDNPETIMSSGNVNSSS
# protocol_details: hS1P1 receptor internalization assay (cell imaging-based, hS1P1-eGFP U2OS cells)
# experimental_context: U2OS cell line expressing hS1P1-eGFP; compounds incubated at 37° C. for one hour; GFP-containing endosomes per cell (ArrayScan); read-out: hS1P1 Receptor Internalization (bioimaging) EC50 IP
pEC50: −log10 of the molar value. Structures can show the parent of a compound that is named as a salt.
pEC50 values for the compounds below.
endpoint_label: pEC50

| compound | readout_number |
| --- | --- |
| O=C(O)c1cnn(Cc2ccc(-c3nc4ccc(C5(c6ccccc6)CC5)nc4s3)c(F)c2)c1 [Example 98, hydrochloride] | 7.35 |
| O=C(O)C1CN(Cc2ccc(-c3nc4nc(C5(c6ccccc6)CC5)ccc4s3)c(F)c2)C1 [Example 44, trifluoroacetic acid salt] | 7.22 |
| O=C(c1ccc(-c2nc3ccc(C4(c5ccccc5)CC4)nc3s2)c(F)c1)N1CCC1 [Example 105] | 5.48 |
| O=C(O)[C@H]1C[C@@H](Nc2ccc(-c3nc4ccc(C5(c6ccccc6)CC5)nc4s3)c(F)c2)C1 [Example 130] | 7.94 |
| O=C(O)C[C@H](O)C(=O)Nc1ccc(-c2nc3ccc(C4(c5ccccc5)CC4)nc3s2)c(F)c1 [Example 133] | 8.66 |
| O=C(O)[C@@H]1C[C@@H](Oc2ccc(-c3nc4ccc(C5(c6ccccc6)CC5)nc4s3)cc2)CN1 [Example 72] | 7.35 |

====

# experimental_system: hS1P1 receptor (Homo sapiens)
# Construct: host or cells: U2OS
# protocol_details: hS1P1 receptor internalization assay (cell imaging-based, hS1P1-eGFP U2OS cells)
# experimental_context: 1 h; U2OS cell line expressing hS1P1-eGFP; efficacy (Max); compounds incubated at 37° C. for one hour; read-out: hS1P1 Receptor Internalization (biolimaging) Max (%)
# Protocol: The activity of compounds of the invention was determined by a cell imaging-based assay measuring the degree of hS1P1 receptor internalization and a Ca^2+ mobilization assay measuring the level of S1P receptor activation. […] This event was detected by an automated microscope, ArrayScan (Thermo Scientific Cellomics, Pittsburg), and the degree of receptor internalization is quantitated by counting green fluorescent GFP-containing endosomes per cell. […]
Structures can show the parent of a compound that is named as a salt.

| molecule | Emax / % |
| --- | --- |
| O=C(O)C1CN(Cc2ccc(-c3nc4ccc(C5(c6ccccc6)CC=CC5)nc4s3)c(F)c2)C1 | 90 |
| CNc1ccc(-c2nc3ccc(C4(c5ccccc5)CC4)nc3s2)c(F)c1 | 125 |
| O=C(O)[C@@H]1C[C@H](c2ccc(-c3nc4ccc(C5(c6ccccc6)CC5)nc4s3)c(F)c2)CN1 [Example 54, trifluoroacetic acid salt] | 126 |
| Cc1cc(-c2nc3ccc(C4(c5ccccc5)CC4)nc3s2)cc(C)c1OC[C@H](O)CO | 125 |
| O=C(O)c1cn(Cc2ccc(-c3nc4ccc(C5(c6ccccc6)CC5)nc4s3)c(F)c2)cn1 [Example 96, hydrochloride] | 105 |
| NC(CO)(CO)CCc1ccc(-c2nc3ccc(C4(c5ccccc5)CC4)nc3s2)c(F)c1 [Example 42, hydrochloride] | 119 |

====

# experimental_system: hS1P1 receptor (Homo sapiens)
# Construct: host or cells: U2OS
# protocol_details: hS1P1 receptor internalization assay (cell imaging-based, hS1P1-eGFP U2OS cells)
# experimental_context: 1 h; U2OS cell line expressing hS1P1-eGFP; efficacy (Max); compounds incubated at 37° C. for one hour; read-out: hS1P1 Receptor Internalization (biolimaging) Max (%)
Structures can show the parent of a compound that is named as a salt.

| molecule | Emax / % |
| --- | --- |
| O=C(O)C1CN(Cc2ccc(-c3nc4ccc(C5(c6ccc(O)cc6)CC5)nc4s3)c(F)c2)C1 | 83 |
| c1ccc(C2(c3ccc4nc(-c5ccc6[nH]ccc6c5)sc4n3)CC2)cc1 | 101 |
| O=C(O)COCc1ccc(-c2nc3ccc(C4(c5ccccc5)CC4)nc3s2)c(F)c1 | 88 |
| O=C(O)CCNCc1ccc(-c2nc3ccc(C4(c5ccccc5)CC4)nc3s2)c(F)c1 [Example 12, hydrochloride] | 101 |

Where do these numbers come from? They come from patent US7842685B2.
